The measurements presented in this section are drawn from patent US20050239656A1.

Tested on: soybean
Experiment: Test Example 2: soil surface treatment, upland pot test
Assay type: in vivo, Glycine max Merr.
Conditions: active ingredient 500 g/ha, observed day 21, 0 = non-treated, 100 = complete kill
For each record, write down the corresponding Growth controlling degree (%) Soyabean.
Your answer is read as %, so omit the unit and give the number.

Q: Need Growth controlling degree (%) Soyabean of CC(C)C(c1cnccc1C(F)(F)F)N(C)C(=O)COc1ccc(Br)cc1 (centres unmarked) , thanks.
Ans: 10

Q: Request: CCN(C(=O)COc1ccccc1)C(c1cnccc1C(F)(F)F)C(C)C (centres unmarked)
Ans: 0

Q: // next record CCC(CC)C(c1cnccc1C(F)(F)F)N(C)C(=O)COc1ccccc1 (centres unmarked)
Ans: 10

Q: Now the same for CCC(C)C(c1cnccc1C(F)(F)F)N(C)C(=O)COc1ccccc1 (centres unmarked)
Ans: 20

Q: Item: CC(C)C(c1cnccc1C(F)(F)F)N(C)C(=O)CSc1ccccc1 (centres unmarked)
Ans: 0
